Origin of the recorded values: patent US20210221899A1

target: T1, rat NGF (rat, UniProt P25427 122-241); assay: SPR (Biacore T200), 100 nM mAb on NGF chip, similarity to parent mAb
T1 construct: also called rN
T1 sequence (P25427 122-241 limits assumed): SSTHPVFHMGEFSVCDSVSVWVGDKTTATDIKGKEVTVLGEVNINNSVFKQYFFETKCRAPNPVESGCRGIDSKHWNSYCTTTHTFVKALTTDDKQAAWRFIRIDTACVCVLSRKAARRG
In this section, each of the binders is paired with its reported Percent Similarity Score (KD on rN).
observation_type: Percent Similarity Score (KD on rN)

INSERT INTO measurements (binder, observed) VALUES
  ('can48L2VL_G92A (antibody, V domains shown, CDR scanning mutant of ZTS-842 (48L2)) VH: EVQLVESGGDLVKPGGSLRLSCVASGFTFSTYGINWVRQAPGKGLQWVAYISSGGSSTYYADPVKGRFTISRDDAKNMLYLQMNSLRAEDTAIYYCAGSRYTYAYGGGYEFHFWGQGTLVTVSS VL: QAVLNQPASVSGALGQKVTISCSGSTMDIDIFGVSWYQQLPGKAPKLLVDSDGDRPSGIPDRFSGSRSGNSGTLTITGLQAEDEADYHCQSADSTLGALAIFGGGTHVTVL', '97%'),
  ('can9L12VH_Y114A (antibody, V domains shown) VH: EVQLVESGGDLVKPGGSLRLSCVASGFTFSSHGMHWVRQSPGKGLQWVAVINSGGSSTYYTDAVKGRFTISRDNAKNTVYLQMNSLRAEDTAMYYCAKESVGGWEQLVGPHFDAWGQGTLVIVSS VL: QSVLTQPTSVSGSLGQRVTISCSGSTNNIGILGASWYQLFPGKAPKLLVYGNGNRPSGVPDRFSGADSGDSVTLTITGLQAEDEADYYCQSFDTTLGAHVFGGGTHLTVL', '99.2%'),
  ('can9L12VH_E105A (antibody, V domains shown) VH: EVQLVESGGDLVKPGGSLRLSCVASGFTFSSHGMHWVRQSPGKGLQWVAVINSGGSSTYYTDAVKGRFTISRDNAKNTVYLQMNSLRAEDTAMYYCAKESVGGWAQLVGPHFDYWGQGTLVIVSS VL: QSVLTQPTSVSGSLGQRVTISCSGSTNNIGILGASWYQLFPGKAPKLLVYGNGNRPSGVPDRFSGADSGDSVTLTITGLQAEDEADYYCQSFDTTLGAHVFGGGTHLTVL', '100%');
